target: Neuraminidase (Influenza A virus (A/Puerto Rico/8/1934(H1N1))) (UniProt P03468); test: Inhibition of Influenza A virus A/PR/8/34(H1N1) sialidase at 3.33 x 10^-4M preincubated for 15 mins followed by MUNA substrate addition measured after 15 mins by fluorescence assay relative to control
Sequence (P03468 whole entry): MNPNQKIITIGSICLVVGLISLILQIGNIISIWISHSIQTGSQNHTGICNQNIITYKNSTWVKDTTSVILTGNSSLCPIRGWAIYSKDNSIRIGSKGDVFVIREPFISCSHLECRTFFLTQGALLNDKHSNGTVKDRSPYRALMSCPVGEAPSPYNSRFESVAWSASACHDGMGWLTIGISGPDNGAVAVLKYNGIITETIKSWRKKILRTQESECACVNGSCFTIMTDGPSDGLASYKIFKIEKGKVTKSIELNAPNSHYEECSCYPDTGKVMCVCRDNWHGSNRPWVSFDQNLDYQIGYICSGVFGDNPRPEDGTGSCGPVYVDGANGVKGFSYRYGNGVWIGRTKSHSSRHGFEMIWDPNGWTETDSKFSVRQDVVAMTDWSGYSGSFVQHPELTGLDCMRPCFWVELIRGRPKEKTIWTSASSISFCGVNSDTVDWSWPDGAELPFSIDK
Outcome: 1 for inhibition of at least 40%; 0 for anything lower.

Completed entries (count: 3):
CC(=O)N[C@H]1[C@H]([C@H](O)[C@H](O)CO)O[C@@](O[C@H]2CC[C@]3(C)[C@H]4C(=O)C=C5[C@@H]6C[C@@](C)(C(=O)O)CC[C@]6(C)CC[C@@]5(C)[C@]4(C)CC[C@H]3C2(C)C)(C(=O)O)C[C@@H]1O :: 1
CC(=O)N[C@H]1[C@H]([C@H](O)[C@H](O)CO)O[C@@](O[C@H]2CC[C@]3(C)[C@H]4CC=C5[C@@H]6C[C@@](C)(CO)CC[C@]6(C)CC[C@@]5(C)[C@]4(C)CC[C@H]3C2(C)C)(C(=O)O)C[C@@H]1O :: 1
COC(=O)[C@@]1(C)CC[C@]2(C)CC[C@]3(C)C(=CC(=O)[C@@H]4[C@@]5(C)CC[C@H](O[C@@]6(C(=O)O)C[C@H](O)[C@@H](NC(C)=O)[C@H]([C@H](O)[C@H](O)CO)O6)C(C)(C)[C@@H]5CC[C@]43C)[C@@H]2C1 :: 0

Ask: // inclusive: inhibition at least 40%? input: `CC(=O)N[C@H]1[C@H]([C@H](O)[C@H](O)CO)O[C@](O[C@H]2CC[C@]3(C)[C@H]4C(=O)C=C5[C@@H]6C[C@@](C)(C(=O)O)CC[C@]6(C)CC[C@@]5(C)[C@]4(C)CC[C@H]3C2(C)C)(C(=O)O)C[C@@H]1O`
Reply: 0

Ask: // inclusive: inhibition at least 40%? input: `COC(=O)[C@]12CCC(C)(C)C[C@H]1C1=CC[C@@H]3[C@@]4(C)CC[C@H](O[C@]5(C(=O)O)C[C@H](O)[C@@H](NC(C)=O)[C@H]([C@H](O)[C@H](O)CO)O5)C(C)(C)[C@@H]4CC[C@@]3(C)[C@]1(C)CC2`
Reply: 1

Ask: // inclusive: inhibition at least 40%? input: `CC(=O)N[C@H]1[C@H]([C@H](O)[C@H](O)CO)O[C@](O[C@H]2CC[C@]3(C)[C@H]4CC=C5[C@@H]6CC(C)(C)CC[C@]6(C(=O)O)CC[C@@]5(C)[C@]4(C)CC[C@H]3C2(C)C)(C(=O)O)C[C@@H]1O`
Reply: 0
